test system: Arthrobacter 2 (Arthrobacter humicola); experiment: relative growth (AUC of 72 h growth curve relative to DMSO control, dAUC) (ratio); higher = more growth (less inhibition), active = hit call of the paper; settings: 20 µM
List of relative growth values.
QUANTITY: relative growth

>>> data_value("ClC1C(Cl)C(Cl)C(Cl)C(Cl)C1Cl (configuration not stated)")
0.837
>>> data_value("Oc1ccccc1-c1ccccc1")
0.866
>>> data_value("CC(C)NC(=O)N1CC(=O)N(c2cc(Cl)cc(Cl)c2)C1=O")
0.957
>>> data_value("CC(Oc1ccc(Oc2ncc(C(F)(F)F)cc2Cl)cc1)C(=O)O (configuration not stated)")
1.03
>>> data_value("N#Cc1sc2c(=O)c3ccccc3c(=O)c=2sc1C#N")
0.193
>>> data_value("CCOP(=S)(OCC)Oc1nc(Cl)c(Cl)cc1Cl")
0.994
>>> data_value("C[N+](C)(C)CCCl")
1

---

test system: Flavobacterium 2 (Flavobacterium succinicans); assay: relative growth (AUC of 72 h growth curve relative to DMSO control, dAUC) (ratio); higher = more growth (less inhibition), active = hit call of the paper; conditions: 20 µM
QUANTITY: relative growth

>>> data_value("CNC(=O)Oc1cccc(/N=C/N(C)C)c1")
0.99
>>> data_value("CCNc1nc(Cl)nc(NC(C)C)n1")
0.972
>>> data_value("CN(C)C(CSS(=O)(=O)O)CSS(=O)(=O)O")
1

---

List of relative growth values.
tested on: Neobacillus 1 (Neobacillus soli); assay: relative growth (AUC of 72 h growth curve relative to DMSO control, dAUC) (ratio); higher = more growth (less inhibition), active = hit call of the paper; details: 20 µM
QUANTITY: relative growth

>>> data_value("CSc1nc(NC(C)C)nc(NC(C)C)n1")
0.987
>>> data_value("CCCCCCCCCCCCNC(=N)N")
0.98
>>> data_value("C/C(=N\\C#N)N(C)Cc1ccc(Cl)nc1")
0.993

---

List of relative growth values.
test system: Rhizobium 1 (Rhizobium herbae); experiment: relative growth (AUC of 72 h growth curve relative to DMSO control, dAUC) (ratio); higher = more growth (less inhibition), active = hit call of the paper; details: 20 µM
QUANTITY: relative growth

>>> data_value("Fc1ccc(Oc2ccnc3cc(Cl)cc(Cl)c23)cc1")
0.992
>>> data_value("COCc1cnc(C2=NC(C)(C(C)C)C(=O)N2)c(C(=O)O)c1 (stereo not given)")
0.972
>>> data_value("Oc1ccccc1-c1ccccc1")
0.989
>>> data_value("COc1ccc(C(=CC(=O)N2CCOCC2)c2ccc(Cl)cc2)cc1OC (mixture of isomers)")
1.02
>>> data_value("O=C1c2ccccc2C(=O)N1SC(Cl)(Cl)Cl")
1.01

---

List of relative growth values.
tested on: Oryzobacter 1 (Oryzobacter terrae); assay: relative growth (AUC of 72 h growth curve relative to DMSO control, dAUC) (ratio); higher = more growth (less inhibition), active = hit call of the paper; settings: 20 µM
QUANTITY: relative growth

>>> data_value("CCNc1nc(Cl)nc(NC(C)C)n1")
0.998
>>> data_value("CC(C1CC1)C(O)(Cn1cncn1)c1ccc(Cl)cc1 (centres undefined)")
0.982
>>> data_value("CC(C)NC(=O)N1CC(=O)N(c2cc(Cl)cc(Cl)c2)C1=O")
1.02
>>> data_value("N#Cc1nn(-c2c(Cl)cc(C(F)(F)F)cc2Cl)c(N)c1[S+]([O-])C(F)(F)F (centres undefined)")
0.998
>>> data_value("CC1=NNC(=O)N(/N=C/c2cccnc2)C1")
1.01
>>> data_value("COP(=S)(OC)Oc1ccc(SC)c(C)c1")
1.02
>>> data_value("CNC(=O)c1cc(Cl)cc(C)c1NC(=O)c1cc(Br)nn1-c1ncccc1Cl")
0.99
>>> data_value("Nc1c(Cl)c(F)nc(OCC(=O)O)c1Cl")
1.01
>>> data_value("CSc1nc(NC(C)C)nc(NC(C)C)n1")
0.978

---

test system: Aeromonas 1 (Aeromonas sp. AE235); test: relative growth (AUC of 72 h growth curve relative to DMSO control, dAUC) (ratio); higher = more growth (less inhibition), active = hit call of the paper; details: 20 µM
List of relative growth values.
QUANTITY: relative growth

>>> data_value("Nc1c(Cl)c(F)nc(OCC(=O)O)c1Cl")
0.974
>>> data_value("CC(C)(C)c1ccc(CSc2cnn(C(C)(C)C)c(=O)c2Cl)cc1")
1.02
>>> data_value("CN(C)C(CSS(=O)(=O)O)CSS(=O)(=O)O")
0.987
>>> data_value("CCc1nn(C)c(C(=O)NCc2ccc(Oc3ccc(C)cc3)cc2)c1Cl")
1.03
>>> data_value("CCOC(=O)CC(SP(=S)(OC)OC)C(=O)OCC (configuration not stated)")
1.06
>>> data_value("CNC(=O)c1cc(Cl)cc(C)c1NC(=O)c1cc(Br)nn1-c1ncccc1Cl")
1.01
>>> data_value("CC(C)N(C)S(=O)(=O)NC(=O)c1cc(-n2c(=O)cc(C(F)(F)F)n(C)c2=O)c(F)cc1Cl")
0.995
>>> data_value("CC1(C)C(C=C(Cl)Cl)C1C(=O)OC(C#N)c1ccc(F)c(Oc2ccccc2)c1 (configuration not stated)")
0.997
>>> data_value("O=[N+]([O-])c1cc(C(F)(F)F)c(Cl)c([N+](=O)[O-])c1Nc1ncc(C(F)(F)F)cc1Cl")
1.04
>>> data_value("CCCC(Cn1cncn1)c1ccc(Cl)cc1Cl (configuration not stated)")
0.932
>>> data_value("Cc1cc(C)c(C2=C(OC(=O)CC(C)(C)C)C3(CCCC3)OC2=O)c(C)c1")
1.09
>>> data_value("N#Cc1c(Cl)c(Cl)c(Cl)c(C#N)c1Cl")
1.04
>>> data_value("COc1ccc(-c2ccccc2)cc1NNC(=O)OC(C)C")
0.954
>>> data_value("COc1ncc(F)c2nc(S(=O)(=O)Nc3c(F)cccc3F)nn12")
1.06
>>> data_value("Cc1nnc(-c2ccccc2)c(=O)n1N")
0.991
>>> data_value("CCN(CC)c1nc(C)cc(OP(=S)(OC)OC)n1")
1
>>> data_value("Oc1ccc(Cl)cc1Cc1cc(Cl)ccc1O")
0.522
>>> data_value("CON(C)C(=O)Nc1ccc(Cl)c(Cl)c1")
0.924
>>> data_value("CNC(=O)/C=C(\\C)OP(=O)(OC)OC")
0.951
>>> data_value("CO/C=C(/C(=O)OC)c1ccccc1COc1cccc(C(F)(F)F)n1")
0.992
>>> data_value("C[C@@H]1[C@@H](c2ccc(Cl)cc2)SC(=O)N1C(=O)NC1CCCCC1")
1.02
>>> data_value("Cc1c(COC(=O)[C@@H]2[C@H](/C=C(\\Cl)C(F)(F)F)C2(C)C)cccc1-c1ccccc1 (racemic)")
0.988

---

List of relative growth values.
test system: Pseudomonas 3 (Pseudomonas mandelii); test: relative growth (AUC of 72 h growth curve relative to DMSO control, dAUC) (ratio); higher = more growth (less inhibition), active = hit call of the paper; conditions: 20 µM
QUANTITY: relative growth

>>> data_value("CC(C)NC(=O)N1CC(=O)N(c2cc(Cl)cc(Cl)c2)C1=O")
0.906
>>> data_value("CCCN(CCOc1c(Cl)cc(Cl)cc1Cl)C(=O)n1ccnc1")
1.02
>>> data_value("COP(=O)(OC)OC=C(Cl)Cl")
1.04
>>> data_value("C#CCN1C(=O)COc2cc(F)c(N3C(=O)C4=C(CCCC4)C3=O)cc21")
1.04
>>> data_value("CCCC1COC(Cn2cncn2)(c2ccc(Cl)cc2Cl)O1 (configuration not stated)")
1
>>> data_value("COC(=O)N(OC)c1ccccc1COc1ccn(-c2ccc(Cl)cc2)n1")
1.03
>>> data_value("CCOC(=O)OC1=C(c2cc(C)ccc2C)C(=O)N[C@]12CC[C@@H](OC)CC2")
1.02
>>> data_value("N#C/N=C1\\SCCN1Cc1ccc(Cl)nc1")
1.02
>>> data_value("OC(Cn1cncn1)(c1ccc(F)cc1)c1ccccc1F (configuration not stated)")
1.03
>>> data_value("COc1ncc(F)c2nc(S(=O)(=O)Nc3c(F)cccc3F)nn12")
1.01
>>> data_value("CCOCn1c(-c2ccc(Cl)cc2)c(C#N)c(Br)c1C(F)(F)F")
1.04
>>> data_value("CC1(C)C(C=C(Cl)Cl)C1C(=O)OCc1cccc(Oc2ccccc2)c1 (configuration not stated)")
1
>>> data_value("COc1cccc(C(=O)NN(C(=O)c2cc(C)cc(C)c2)C(C)(C)C)c1C")
1.04
>>> data_value("COCC(C)N(C(=O)CCl)c1c(C)csc1C (configuration not stated)")
1
>>> data_value("CS(=O)(=O)c1ccc(C(=O)C2C(=O)CCCC2=O)c([N+](=O)[O-])c1")
1.03
>>> data_value("COP(=O)(NC(C)=O)SC (configuration not stated)")
1.08
>>> data_value("Cc1cc(C)nc(Nc2ccccc2)n1")
1.03
>>> data_value("C#CCOc1ccc(CCNC(=O)C(OCC#C)c2ccc(Cl)cc2)cc1OC (configuration not stated)")
1.02
>>> data_value("N#Cc1c(Cl)c(Cl)c(Cl)c(C#N)c1Cl")
0.967
>>> data_value("CC(C)OC(=O)Nc1cccc(Cl)c1")
1.04
>>> data_value("COCC(=O)N(c1c(C)cccc1C)C(C)C(=O)OC (configuration not stated)")
1
>>> data_value("C[N+]1(C)CCCCC1")
1.02

Where these numbers come from: the supplement of paper PMC12067926
